Hey, just so you know, these numbers are from ChEMBL document CHEMBL4689842.

tested on: HEK-293T; assay: Multiplex assay against HEK293T; type: toxicity, cell-based; settings: human, 12 h, 1 µM, compound concentration 1 uM, replicate 1
# binarize Population Pyknosed Nuclei (%): threshold 40% inclusive, high side Criterion met, low side Criterion not met

>  <compound>
Cn1nc(C(F)(F)F)cc1-c1cnc(N2CCc3cc(S(=O)(=O)Nc4c(F)cc(Cl)cc4F)cc(N4CCCC4=O)c32)nc1

>  <target_under_test>
HEK-293T

>  <assigned_category>
Criterion not met

$$$$
>  <compound>
CN[C@@H]1C[C@H]2O[C@@](C)([C@@H]1OC)n1c3ccccc3c3c4c(c5c6ccccc6n2c5c31)C(=O)NC4

>  <target_under_test>
HEK-293T

>  <assigned_category>
Criterion met

$$$$
>  <compound>
Cc1cc(C)c(S(=O)(=O)N(Cc2ccc(-c3cccc(S(C)(=O)=O)c3)cc2)Cc2ccc(C(F)(F)F)o2)c(C)c1

>  <target_under_test>
HEK-293T

>  <assigned_category>
Criterion met

$$$$
>  <compound>
CN(C)C(=O)C(CCN1CCC(O)(c2ccc(Cl)cc2)CC1)(c1ccccc1)c1ccccc1.Cl [LOPERAMIDE HYDROCHLORIDE]

>  <target_under_test>
HEK-293T

>  <assigned_category>
Criterion met

$$$$
>  <compound>
O=C1N/C(=N/c2ccccc2F)S/C1=C\c1ccc(C(=O)O)cc1

>  <target_under_test>
HEK-293T

>  <assigned_category>
Criterion met

$$$$
>  <compound>
COc1cccc2cc(-c3nc([C@H]4CC[C@H](C(=O)O)CC4)n4ncnc(N)c34)[nH]c12

>  <target_under_test>
HEK-293T

>  <assigned_category>
Criterion not met

$$$$
>  <compound>
COc1cc(N2CCN(C)CC2)ccc1Nc1ncc2c(n1)N(C)c1ccccc1C(=O)N2C

>  <target_under_test>
HEK-293T

>  <assigned_category>
Criterion met

$$$$

====

test system: U2OS; assay: Multiplex assay against U2OS; format: toxicity, cell-based; settings: human, 24 h, 1 µM, compound concentration 1 uM, replicate 2
assay_metric: Population Hoechst High Intensity Objects (%)

>  <mol_smiles>
C=C1/C(=C\C=C2/CCC[C@]3(C)[C@@H]([C@H](C)/C=C/[C@H](C)C(C)C)CC[C@@H]23)C[C@@H](O)C[C@@H]1O

>  <quantitative_readout>
4

$$$$
>  <mol_smiles>
Cl.O=C(c1ccc(Nc2nccc(-c3cc4ccccc4s3)n2)cc1)N1CCC(N2CCCC2)CC1

>  <quantitative_readout>
14

$$$$
>  <mol_smiles>
Cl.Oc1ccc2c3c1O[C@H]1c4[nH]c5c(c4C[C@@]4(O)[C@@H](C2)N(CC2CC2)CC[C@]314)C[C@@]1(O)[C@H]2Cc3ccc(O)c4c3[C@@]1(CCN2CC1CC1)[C@H]5O4

>  <quantitative_readout>
4

$$$$
>  <mol_smiles>
CCCS(=O)(=O)c1nc(NC2CC2)cc(-c2ccc3c(ccn3C3CC(C)(C)NC(C)(C)C3)c2)n1

>  <quantitative_readout>
5

$$$$
>  <mol_smiles>
CCCn1c(=O)c2[nH]c(-c3cnn(Cc4cccc(C(F)(F)F)c4)c3)nc2n(CC)c1=O

>  <quantitative_readout>
4

$$$$
>  <mol_smiles>
CCN1CCN(c2ccc(Nc3cc(N(C)C(=O)Nc4c(Cl)c(OC)cc(OC)c4Cl)ncn3)cc2)CC1

>  <quantitative_readout>
14

$$$$
>  <mol_smiles>
Cc1ccc2nc(NCCN)c3ncc(C)n3c2c1.O=C(O)C(F)(F)F.O=C(O)C(F)(F)F

>  <quantitative_readout>
8

$$$$

====

system: HEK-293T; assay: Multiplex assay against HEK293T; type: toxicity, cell-based; conditions: human, 12 h, 10 µM, compound concentration 10 uM, replicate 1
# Population Membrane Permeable-Phenotype (%) annotations
assay_metric: Population Membrane Permeable-Phenotype (%)

>  <molecule>
C=CCn1c(=O)c2cnc(Nc3ccc(N4CCN(C)CC4)cc3)nc2n1-c1cccc(C(C)(C)O)n1

>  <result>
16%

$$$$
>  <molecule>
O=C(Nc1ccc(-n2nc(-c3cccnc3)cc2C(F)(F)F)cn1)c1ccc(-c2ccccc2)c(F)c1

>  <result>
3%

$$$$
>  <molecule>
COc1cc(N2CCN(C)CC2)ccc1Nc1ncc2c(n1)N(C)c1ccccc1C(=O)N2C

>  <result>
23%

$$$$
>  <molecule>
Cc1ccc(C(=O)Nc2cccc(C(F)(F)F)c2)cc1Nc1nc(-c2cccnc2)nc2c1cnn2C

>  <result>
8%

$$$$
>  <molecule>
O=C(Nc1cccnn1)N1CCC(=Cc2cccc(Oc3ccc(C(F)(F)F)cn3)c2)CC1

>  <result>
3%

$$$$
>  <molecule>
CCOC(=O)c1c(C)[nH]c2ccc3c(c12)CN1CCc2cc(OC)ccc2C1O3 (stereo unspecified)

>  <result>
0%

$$$$
>  <molecule>
O=C1N/C(=N/c2ccccc2F)S/C1=C\c1ccc(C(=O)O)cc1

>  <result>
4%

$$$$
>  <molecule>
O=C(Nc1ccc(Cl)cc1)Nc1cccc(-c2cccc(N3CCCC3)n2)c1

>  <result>
66%

$$$$
>  <molecule>
CCCS(=O)(=O)c1nc(NC2CC2)cc(-c2ccc3c(ccn3C3CC(C)(C)NC(C)(C)C3)c2)n1

>  <result>
16%

$$$$
>  <molecule>
CN1CCC(=C2c3ccccc3CC(=O)c3sccc32)CC1.O=C(O)/C=C/C(=O)O [KETOTIFEN FUMARATE]

>  <result>
4%

$$$$
>  <molecule>
CCN1CCN(c2ccc(Nc3cc(N(C)C(=O)Nc4c(Cl)c(OC)cc(OC)c4Cl)ncn3)cc2)CC1

>  <result>
7%

$$$$
>  <molecule>
Cc1cn(-c2cc(NC(=O)c3ccc(C)c(Nc4nccc(-c5cccnc5)n4)c3)cc(C(F)(F)F)c2)cn1

>  <result>
6%

$$$$
>  <molecule>
Cl.O=c1c2cccn2c2ccccc2n1CCCN1CCC(c2ccc(Cl)cc2)CC1

>  <result>
5%

$$$$
>  <molecule>
CCn1c(=O)c(-c2ccc(-c3cncs3)cc2Cl)cc2cnc(Nc3ccc(N4CCN(C)CC4)cc3)nc21

>  <result>
5%

$$$$
>  <molecule>
NC(=O)c1cccc(-c2cc(Nc3ccc(OC(F)(F)F)cc3)ncn2)c1

>  <result>
4%

$$$$
>  <molecule>
CCCn1c(=O)c2[nH]c(-c3cnn(Cc4cccc(C(F)(F)F)c4)c3)nc2n(CC)c1=O

>  <result>
0%

$$$$
>  <molecule>
Cc1ccc2nc(NCCN)c3ncc(C)n3c2c1.O=C(O)C(F)(F)F.O=C(O)C(F)(F)F

>  <result>
5%

$$$$
>  <molecule>
CCN1CCN(Cc2ccc(Nc3ncc(F)c(-c4cc(F)c5nc(C)n(C(C)C)c5c4)n3)nc2)CC1.CS(=O)(=O)O

>  <result>
0%

$$$$
>  <molecule>
COc1cccc2cc(-c3nc([C@H]4CC[C@H](C(=O)O)CC4)n4ncnc(N)c34)[nH]c12

>  <result>
8%

$$$$
>  <molecule>
COc1ccc(S(=O)(=O)N(CCO)c2ccccc2CN(C)C/C=C/c2ccc(Cl)cc2)cc1.O=P(O)(O)O

>  <result>
6%

$$$$
>  <molecule>
O=C(Nc1ccc(-c2ccnc(Nc3ccc(N4CCOCC4)cc3)n2)cc1)[C@@H]1CCCN1

>  <result>
0%

$$$$

====

test system: U2OS; assay: Multiplex assay against U2OS; assay type: toxicity, cell-based; conditions: human, 12 h, 10 µM, compound concentration 10 uM, replicate 2
In plain terms, low Population Tubulin-Different-Phenotype (%), meaning strictly below 50%, gives true, and everything else gives false.

>  <mol_smiles>
Cn1nc(C(F)(F)F)cc1-c1cnc(N2CCc3cc(S(=O)(=O)Nc4c(F)cc(Cl)cc4F)cc(N4CCCC4=O)c32)nc1

>  <assigned_category>
true

$$$$
>  <mol_smiles>
COC(=N)c1nc2ccc3ncnc(Nc4ccc(OC)cc4F)c3c2s1

>  <assigned_category>
true

$$$$
>  <mol_smiles>
O=C(Nc1cccnn1)N1CCC(=Cc2cccc(Oc3ccc(C(F)(F)F)cn3)c2)CC1

>  <assigned_category>
true

$$$$
>  <mol_smiles>
CCN1CCN(Cc2ccc(Nc3ncc(F)c(-c4cc(F)c5nc(C)n(C(C)C)c5c4)n3)nc2)CC1.CS(=O)(=O)O

>  <assigned_category>
false

$$$$
>  <mol_smiles>
CCc1cccc(CC)c1NC(=O)c1nn(C)c2c1CCc1cnc(Nc3ccc(N4CCN(C)CC4)cc3OC)nc1-2

>  <assigned_category>
false

$$$$
>  <mol_smiles>
O=C(Nc1ccc(Cl)cc1)Nc1cccc(-c2cccc(N3CCCC3)n2)c1

>  <assigned_category>
false

$$$$
>  <mol_smiles>
Cl.O=c1c2cccn2c2ccccc2n1CCCN1CCC(c2ccc(Cl)cc2)CC1

>  <assigned_category>
false

$$$$
>  <mol_smiles>
S=C(NCCCc1c[nH]cn1)NCCCN(Cc1ccc(Cl)c(Cl)c1)c1ccc(Br)cn1

>  <assigned_category>
false

$$$$
